These measurements were taken from the FLAb antibody collection (doi:10.7554/elife.23156).

B1: scFv; the commonest letter at each place (parent)
chain 1: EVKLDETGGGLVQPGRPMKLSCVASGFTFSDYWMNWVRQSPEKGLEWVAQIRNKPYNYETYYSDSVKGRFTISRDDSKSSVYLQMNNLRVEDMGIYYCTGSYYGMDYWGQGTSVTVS
chain 2: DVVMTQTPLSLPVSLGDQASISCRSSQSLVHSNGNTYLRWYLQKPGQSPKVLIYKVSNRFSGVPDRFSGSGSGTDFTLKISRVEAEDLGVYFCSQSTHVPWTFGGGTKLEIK

variants of: B1; test: Kd (Tite-Seq); conditions: with fluorescein; format: scFv 4-4-20, heavy + light
pKd: −log10 of the molar value.
Test readout: pKd

// known answers, use as guide
{"columns": ["Change", "Test readout", "Result value"],
 "data": [
  ["chain 1 Y103S D106H", "pKd", "≤ 5.00"],
  ["chain 1 G104L Y107E", "pKd", "≤ 5.00"],
  ["chain 1 T28W S30F", "pKd", 8.22],
  ["chain 1 Y103C W108N", "pKd", 6.31],
  ["chain 1 W33F", "pKd", 7.39],
  ["chain 1 S101H Y103Q", "pKd", "≤ 5.00"],
  ["chain 1 W108S G109S", "pKd", 5.22],
  ["chain 1 Y103P D106H", "pKd", "≤ 5.00"],
  ["chain 1 G104W M105R", "pKd", "≤ 5.00"],
  ["chain 1 W108E G109T", "pKd", "≤ 5.00"]
]}

### Prompt Please report the recorded pKd for chain 1 S101W D106I .
### Response ≤ 5.00

### Prompt Please report the recorded pKd for chain 1 Y107W .
### Response 9.07

### Prompt Please report the recorded pKd for chain 1 S101D D106N .
### Response ≤ 5.00

### Prompt Please report the recorded pKd for chain 1 F29R Y32P N35E .
### Response ≤ 5.00

### Prompt Please report the recorded pKd for chain 1 Y107L G109V .
### Response ≤ 5.00
